# test.summary: qHTS assay to test for compound auto fluorescence at 460 nm (blue) in HepG2 cell free culture (AID 720685); also: % is scaled to controls: 0 for no effect and ±100 for the full control effect
# run.parameters: Cell-free culture medium, blue autofluorescence 405/460 nm; series mostly up to 91.3 µM
Calls of active or inactive are those of the source. Calls follow the shape of the dose curve; as a rule, active = well fitted curve in the direction sought with a large enough effect in the repeat runs; inconclusive = weak or mixed curves; inactive = flat fitted curve, though single readings scatter.
quantity.name: fluorescence, % of fluorescent control

>>> test_result("CC(C)(C)OC=O")
"inactive"
>>> test_result("CCCCCCCCCCCCCCCC/C=C/C1CC(=O)OC1=O (configuration not stated)")
"inactive"
>>> test_result("CN(C)c1ccncc1")
"inactive"
>>> test_result("CCCCC(CC)CCC(CC(C)C)OS(=O)(=O)O (configuration not stated)")
"inactive"
>>> test_result("CC(O)C(CO)C(C)O (configuration not stated)")
"inactive"
>>> test_result("Cc1ccc(N)nc1")
"inactive"
>>> test_result("CCCCCC(CC)OC(=O)CCCOc1ccc(Cl)cc1Cl (configuration not stated)")
"inactive"
>>> test_result("CCCCS")
"inactive"
>>> test_result("C=COCCCCO")
"inactive"
>>> test_result("CCCCCCCCCCCCCCCC(=O)OC")
"-0.0427% [at 18.6 µM] (inactive)"
>>> test_result("O=P(O)(O)C(O)(Cc1cccnc1)P(=O)(O)O")
"inactive"
>>> test_result("NNC(=O)OCc1ccccc1")
"inactive"
>>> test_result("Cc1ccc(OC(=O)CC(C)C)cc1")
"inactive"
>>> test_result("CCCCN1C(=O)c2ccccc2C1=O")
"inactive"
>>> test_result("CC1(C)S[C@@H]2[C@H](NC(=O)Cc3ccccc3)C(=O)N2[C@H]1C(=O)O (tested in a mixture with another compound)")
"inactive"
>>> test_result("O=C(OOC(=O)c1ccccc1)c1ccccc1")
"inactive"
>>> test_result("C[n+]1ccccc1/C=N/O")
"-0.0014% [at 18.6 µM] (inactive)"
>>> test_result("CCOC(=O)CC(C(C)=O)C(C)=O")
"inactive"
>>> test_result("CC(C)c1cc(C(C)C)cc(C(C)C)c1")
"inactive"
>>> test_result("NC(=O)CC[C@@H](N)C(=O)O")
"inactive"
>>> test_result("CCC(C)SSC(C)CC (configuration not stated)")
"inactive"
>>> test_result("CN(C)CCc1c[nH]c2ccc(C[C@H]3COC(=O)N3)cc12")
"inactive"
>>> test_result("Cc1nc2ccc(Cl)cc2[nH]1")
"inactive"
>>> test_result("CCCCCCCOC(C)=O")
"inactive"
>>> test_result("O=C(O)Cc1c(Cl)ccc(Cl)c1Cl")
"inactive"
>>> test_result("CNCCc1ccccn1")
"0.0418% [at 18.6 µM] (inactive)"
>>> test_result("CSC(=O)c1cccc2nnsc12")
"inactive"
>>> test_result("O=C(O)/C=C(\\CC(=O)O)C(=O)O")
"inactive"
>>> test_result("O=C(O)COc1ccc2ccccc2c1")
"inactive"
>>> test_result("C=C(C)C(=O)OCCCC")
"inactive"
>>> test_result("O=C[C@@H](O)[C@H](O)[C@H](O)CO")
"inactive"
>>> test_result("Cc1cc(C)c(N)c(Cl)c1")
"inactive"
>>> test_result("O=S(=O)(O)c1ccc(Cl)cc1")
"inactive"
>>> test_result("N[C@H]1C(O)O[C@H](CO)[C@@H](O)[C@@H]1O (some centres not stated)")
"inactive"
>>> test_result("CCCCc1ccc(Cl)cc1")
"inactive"
>>> test_result("CC1(C)C(=O)C(C)(C)C1=O")
"inactive"
>>> test_result("CCCCOCCCC")
"inactive"
>>> test_result("COCc1nnc(-c2ccc[n+]([O-])c2)n1-c1c(Cl)c(Cl)cc2[nH]c(=O)c(=O)[nH]c12")
"inactive"
>>> test_result("C/C=C(\\C)C=O")
"inactive"
>>> test_result("Cc1ccc2cccnc2c1")
"inactive"
>>> test_result("Cc1ccc(Br)cc1")
"inactive"
>>> test_result("O=S(=O)(O)CC(O)CCl (configuration not stated)")
"inactive"
>>> test_result("NNC(=O)CCCCC(=O)NN")
"inactive"
>>> test_result("COc1cc2nc(N3CCN(C(=O)C4CCCO4)CC3)nc(N)c2cc1OC (configuration not stated)")
"inactive"
>>> test_result("COC(=O)C(c1ccccc1Cl)N1CCc2sccc2C1 (configuration not stated)")
"inactive"
>>> test_result("Cc1ccc2ccccc2n1")
"inactive"
>>> test_result("CC(=O)OC1CCC(C(C)(C)C)CC1 (configuration not stated)")
"inactive"
>>> test_result("CN(C)CCc1c[nH]c2ccc(CS(=O)(=O)N3CCCC3)cc12")
"inactive"
>>> test_result("O=C(CCBr)N1CCN(C(=O)CCBr)CC1")
"inactive"
>>> test_result("COc1cc(OC)cc(OC)c1")
"inactive"
>>> test_result("C=CC(=O)OCC[N+](C)(C)C")
"inactive"
>>> test_result("NS(=O)(=O)c1cc2c(cc1C(F)(F)F)NCNS2(=O)=O")
"-0.157% [at 18.6 µM] (inactive)"
>>> test_result("CCCCCCCC(=O)N(C)C")
"inactive"
>>> test_result("CCCCCC(=O)CC")
"inactive"
>>> test_result("CCCCCCCCCCCC(C)=O")
"inactive"
>>> test_result("Cc1ccc(NC(N)=O)cc1")
"inactive"
>>> test_result("N=C(N)S(=O)O")
"inactive"
>>> test_result("CCCCCCCCOCCC#N")
"inactive"
>>> test_result("CC(C)(C)c1ccc(N)cc1")
"inactive"
>>> test_result("C=CC(C)(CCC=C(C)C)OC(=O)C(C)C (configuration not stated)")
"inactive"
>>> test_result("C=CC(=O)CC")
"inactive"
>>> test_result("CCO/C=C1\\N=C(c2ccccc2)OC1=O")
"inactive"
